EC50 (read off the curve): recorded values
Target: T1, human ROR1 on cells (HEK293T-hROR1, PANC-1, A549) (human, UniProt Q01973 30-937)
T1 construct: whole, on cells; one molecule for the three cell lines; also called huROR1; cell surface ROR1
T1 sequence (Q01973 30-937): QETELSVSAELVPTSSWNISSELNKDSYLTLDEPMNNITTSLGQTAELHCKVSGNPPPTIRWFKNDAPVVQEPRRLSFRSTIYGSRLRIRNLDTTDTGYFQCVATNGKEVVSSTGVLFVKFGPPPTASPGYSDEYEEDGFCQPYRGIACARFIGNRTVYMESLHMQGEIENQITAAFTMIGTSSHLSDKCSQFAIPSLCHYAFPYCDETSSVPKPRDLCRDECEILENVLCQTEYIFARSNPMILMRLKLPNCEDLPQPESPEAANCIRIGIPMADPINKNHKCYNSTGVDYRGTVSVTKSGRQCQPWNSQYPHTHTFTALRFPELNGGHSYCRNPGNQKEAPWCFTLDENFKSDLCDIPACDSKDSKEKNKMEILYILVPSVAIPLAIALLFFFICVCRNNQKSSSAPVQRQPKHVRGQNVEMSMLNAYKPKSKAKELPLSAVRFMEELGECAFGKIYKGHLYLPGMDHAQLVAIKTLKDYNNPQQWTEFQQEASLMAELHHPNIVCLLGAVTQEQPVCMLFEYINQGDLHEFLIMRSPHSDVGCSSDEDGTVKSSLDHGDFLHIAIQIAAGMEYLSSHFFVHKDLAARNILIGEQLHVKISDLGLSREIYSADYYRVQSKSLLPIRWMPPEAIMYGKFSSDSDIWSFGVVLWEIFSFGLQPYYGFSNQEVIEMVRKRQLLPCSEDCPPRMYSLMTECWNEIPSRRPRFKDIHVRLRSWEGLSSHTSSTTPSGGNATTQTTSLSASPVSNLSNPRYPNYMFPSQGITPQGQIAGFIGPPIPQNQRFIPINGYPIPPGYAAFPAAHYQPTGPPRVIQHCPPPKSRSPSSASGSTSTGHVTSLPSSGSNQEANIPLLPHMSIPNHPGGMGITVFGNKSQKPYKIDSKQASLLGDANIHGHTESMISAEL
Assay: flow cytometry on PANC-1 cells, MFI (Median-APC) [bottom panel, letter not given]

PR007419 (antibody, V domains shown, bivalent form (HCAb) variant of PR005340, no light chain) VH: EVQLVESGGGLVKPGGSLRLSCAASGFTFSDFYMSWIRQAPGKGLEWISYINTRGSPIGYADSVKGRFTISRDNAKNSLYLQMNSLRAEDTAIYYCARDMPSSSSDWVSLQFDYWGQGTLVTVSS	~0.8 nM

Consider the additional binder presented here.
Task: Return EC50 (read off the curve) for the following binder: PR007423 (antibody, V domains shown, bivalent form (HCAb) variant of PR005340, no light chain) VH: EVQLVESGGGLVKPGGSLRLSCAASGFTFSDYYMSWIRQAPGKGLEWISYIDSSGRPLAYADSVKGRFTISRDNAKNSLYLQMNSLRAEDTAIYYCARDIPSSSSDWVDLQFDYWGQGTLVTVSS
Result: ~0.4 nM
